Target: cyclic AMP phosphodiesterase (PDE) enzyme obtained from human platelets (Homo sapiens)
Construct: phosphodiesterase (PDE) enzyme obtained from human platelets; from tissue; host or cells: human platelets
Sequence (Q14432 whole entry): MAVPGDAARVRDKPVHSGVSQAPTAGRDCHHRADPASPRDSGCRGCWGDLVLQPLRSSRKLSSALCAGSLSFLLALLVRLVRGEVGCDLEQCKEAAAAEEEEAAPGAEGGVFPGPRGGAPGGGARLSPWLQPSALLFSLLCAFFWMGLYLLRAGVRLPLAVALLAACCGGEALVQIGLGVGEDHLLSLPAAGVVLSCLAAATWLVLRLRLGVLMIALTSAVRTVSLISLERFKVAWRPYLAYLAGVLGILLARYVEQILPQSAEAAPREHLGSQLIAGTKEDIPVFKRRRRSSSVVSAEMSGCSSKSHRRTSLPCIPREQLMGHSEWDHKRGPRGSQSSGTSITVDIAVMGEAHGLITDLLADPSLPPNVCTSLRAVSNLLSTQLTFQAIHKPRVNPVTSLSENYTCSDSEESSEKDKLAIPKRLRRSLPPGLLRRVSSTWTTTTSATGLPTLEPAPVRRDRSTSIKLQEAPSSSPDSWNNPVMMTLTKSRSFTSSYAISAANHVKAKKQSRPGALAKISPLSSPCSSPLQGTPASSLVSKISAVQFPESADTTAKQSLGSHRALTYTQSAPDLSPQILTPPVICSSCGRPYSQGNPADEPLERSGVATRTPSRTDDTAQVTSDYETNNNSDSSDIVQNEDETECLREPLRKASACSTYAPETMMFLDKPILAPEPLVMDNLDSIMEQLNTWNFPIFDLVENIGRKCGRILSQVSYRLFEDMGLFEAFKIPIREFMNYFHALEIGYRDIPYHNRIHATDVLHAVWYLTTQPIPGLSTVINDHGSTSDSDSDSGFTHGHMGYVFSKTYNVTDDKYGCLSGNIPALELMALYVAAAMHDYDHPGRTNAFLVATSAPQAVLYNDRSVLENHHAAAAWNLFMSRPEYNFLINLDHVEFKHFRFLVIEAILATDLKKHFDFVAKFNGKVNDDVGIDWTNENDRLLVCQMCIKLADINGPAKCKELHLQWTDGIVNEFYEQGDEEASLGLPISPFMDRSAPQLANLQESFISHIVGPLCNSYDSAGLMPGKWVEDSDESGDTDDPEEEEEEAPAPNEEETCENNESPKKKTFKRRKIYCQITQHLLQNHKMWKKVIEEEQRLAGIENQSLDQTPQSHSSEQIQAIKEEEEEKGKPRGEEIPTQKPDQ
Assay: inhibition of cyclic AMP phosphodiesterase
Format: biochemical
Conditions: human platelet PDE; read-out: IC50, cAMP phosphodiesterase inhibition
readout: IC50 (nM)

> print(dat)
                               linenotation                             subjectoftest  readout  unitdescriptor  numericvalue
1  O=C(CCCOc1ccc2nc3[nH]c(=O)[nH]c3cc2c1)N1CCN(CC2CCCCC2)CC1  cyclic AMP phosphodiesterase (PDE) enzyme obtained from human platelets (Homo sapiens)     IC50              nM           0.4
